assay-system: human GLP-1 receptor (human, UniProt P43220 24-463)
measurement-description: cell-based or functional assay
measure-name: cAMP Emax (1.0% HSA) (%)
Respond with the bare value in %.

Please give the measured cAMP Emax (1.0% HSA) for this binder: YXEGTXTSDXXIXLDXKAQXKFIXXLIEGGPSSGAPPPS (Y-Aib-EGT-αMeF(2F)-TSD-4Pal-Aib-I-αMeL-LD-Orn-K((2-[2-(2-Amino-ethoxy)-ethoxy]-acetyl)2-(γ-Glu)-CO-(CH2)12-CO2H)AQ-Aib-K((2-[2-(2-Amino-ethoxy)-ethoxy]-acetyl)2-(γ-Glu)-CO-(CH2)12-CO2H)FI-(D-Glu)-αMeY-LIEGGPSSGAPPPS-NH2) [Example 357]
92.8

Need cAMP Emax (1.0% HSA) of YXEGTXTSDXXIXLDXIAQXXFIKXLIKGGPSSGAPPPS (Y-Aib-EGT-αMeF(2F)-TSD-4Pal-Aib-I-αMeL-LD-Orn-IAQ-Aib-Orn-FIK((2-[2-(2-Amino-ethoxy)-ethoxy]-acetyl)2-(γ-Glu)-(10-(4-carboxyphenoxy)decanoyl))-αMeY-LIK((2-[2-(2-Amino-ethoxy)-ethoxy]-acetyl)2-(γ-Glu)-(10-(4-carboxyphenoxy)decanoyl))GGPSSGAPPPS-NH2) [Example 354] , thanks.
95.9

Need cAMP Emax (1.0% HSA) of YXEGTXTSDXXIXLDXKAQXKXIXXLIEGGPSSGAPPPS (not fully specified; Y-Aib-EGT-αMeF(2F)-TSD-4Pal-Aib-I-αMeL-LD-Orn-K((2-[2-(2-Amino-ethoxy)-ethoxy]-acetyl)2-(γ Glu)-CO-(CH2)10H3)AQ-Aib-K((2-[2-(2-Amino-ethoxy)-ethoxy]-acetyl)2-(γGlu)-CO-(CH2)10C3)-αMeFI-(D-Glu)-αMeY-LIEGGPSSGAPPPS-NH2) [Example 430] , thanks.
88.5
